# test-description: activity coefficient (dimensionless); of the first substance listed, at infinite dilution; xn = mol fraction of the nth substance listed
# experimental-parameters: 328.15 K; 101.33 kPa; Liquid; Chromatography; x1 = 0
Entries and their measured activity coefficient follow.

In [3]: df
Out[3]:
                                   compound             parameter  value
0  COC(C)=O [methyl ethanoate] + CCCCCCCCCCCC[N+](C)(C)CCOc1ccccc1.O=S(=O)([N-]S(=O)(=O)C(F)(F)F)C(F)(F)F  activity coefficient  0.503

# activity coefficient (compound: C=CCCCCC [1-heptene] + CCCCCCCCCCCC[N+](C)(C)CCOc1ccccc1.O=S(=O)([N-]S(=O)(=O)C(F)(F)F)C(F)(F)F ) is 2.59

# activity coefficient (compound: CCOCC [diethyl ether] + CCCCCCCCCCCC[N+](C)(C)CCOc1ccccc1.O=S(=O)([N-]S(=O)(=O)C(F)(F)F)C(F)(F)F ) is 1.12

# activity coefficient (compound: CCCCCCCC [octane] + CCCCCCCCCCCC[N+](C)(C)CCOc1ccccc1.N#C[N-]C#N ) is 6.7

----------
Entries and their measured activity coefficient follow.
# test-description: activity coefficient (dimensionless); of the first substance listed, at infinite dilution; xn = mol fraction of the nth substance listed
# experimental-parameters: 358.15 K; 101.33 kPa; Liquid; Chromatography; x1 = 0
// no unit, no text: just the number

Worked set:
>>> print(df.to_string())
                                   compound  value
0  CCOCC [diethyl ether] + CCCCCCCCCCCC[N+](C)(C)CCOc1ccccc1.N#C[N-]C#N   2.34
1  CCCc1ccccc1 [propylbenzene] + CCCCCCCCCCCC[N+](C)(C)CCOc1ccccc1.O=S(=O)([N-]S(=O)(=O)C(F)(F)F)C(F)(F)F   1.32
2  C1CCOC1 [tetrahydrofuran] + CCCCCCCCCCCC[N+](C)(C)CCOc1ccccc1.O=S(=O)([N-]S(=O)(=O)C(F)(F)F)C(F)(F)F  0.473
3  Cc1ccc(C)cc1 [1,4-dimethylbenzene] + CCCCCCCCCCCC[N+](C)(C)CCOc1ccccc1.N#C[N-]C#N   1.57

# activity coefficient (compound: CCO [ethanol] + CCCCCCCCCCCC[N+](C)(C)CCOc1ccccc1.O=S(=O)([N-]S(=O)(=O)C(F)(F)F)C(F)(F)F ) is 1.09

# activity coefficient (compound: C=CCCC [1-pentene] + CCCCCCCCCCCC[N+](C)(C)CCOc1ccccc1.O=S(=O)([N-]S(=O)(=O)C(F)(F)F)C(F)(F)F ) is 2.03

# activity coefficient (compound: Cc1ccccc1C [1,2-dimethylbenzene] + CCCCCCCCCCCC[N+](C)(C)CCOc1ccccc1.O=S(=O)([N-]S(=O)(=O)C(F)(F)F)C(F)(F)F ) is 0.968

----------
# test-description: activity coefficient (dimensionless); of the first substance listed, at infinite dilution; xn = mol fraction of the nth substance listed
# experimental-parameters: 348.15 K; 101.33 kPa; Liquid; Chromatography; x1 = 0
parameter: activity coefficient
// no unit, no text: just the number

Worked set:
>>> df
                                   compound  value
0  CCCC(C)=O [pentan-2-one] + CCCCCCCCCCCC[N+](C)(C)CCOc1ccccc1.O=S(=O)([N-]S(=O)(=O)C(F)(F)F)C(F)(F)F  0.458
1  C=CCCC [1-pentene] + CCCCCCCCCCCC[N+](C)(C)CCOc1ccccc1.O=S(=O)([N-]S(=O)(=O)C(F)(F)F)C(F)(F)F   1.98
2  CCCc1ccccc1 [propylbenzene] + CCCCCCCCCCCC[N+](C)(C)CCOc1ccccc1.N#C[N-]C#N   1.83
3  CCC(=O)CC [pentan-3-one] + CCCCCCCCCCCC[N+](C)(C)CCOc1ccccc1.O=S(=O)([N-]S(=O)(=O)C(F)(F)F)C(F)(F)F  0.462
4  C#CCCCCCC [1-octyne] + CCCCCCCCCCCC[N+](C)(C)CCOc1ccccc1.O=S(=O)([N-]S(=O)(=O)C(F)(F)F)C(F)(F)F   1.95
5  CCCCCO [pentan-1-ol] + CCCCCCCCCCCC[N+](C)(C)CCOc1ccccc1.N#C[N-]C#N  0.505

# activity coefficient (compound: Cc1ccccc1 [toluene] + CCCCCCCCCCCC[N+](C)(C)CCOc1ccccc1.O=S(=O)([N-]S(=O)(=O)C(F)(F)F)C(F)(F)F ) is 0.81

# activity coefficient (compound: CCc1ccccc1 [ethylbenzene] + CCCCCCCCCCCC[N+](C)(C)CCOc1ccccc1.N#C[N-]C#N ) is 1.5

# activity coefficient (compound: CCC[N+](=O)[O-] [1-nitropropane] + CCCCCCCCCCCC[N+](C)(C)CCOc1ccccc1.O=S(=O)([N-]S(=O)(=O)C(F)(F)F)C(F)(F)F ) is 0.793

# activity coefficient (compound: CCOCC [diethyl ether] + CCCCCCCCCCCC[N+](C)(C)CCOc1ccccc1.N#C[N-]C#N ) is 2.28

# activity coefficient (compound: C=COC(C)=O [vinyl acetate] + CCCCCCCCCCCC[N+](C)(C)CCOc1ccccc1.N#C[N-]C#N ) is 1.31

# activity coefficient (compound: C=CCCCCCC [oct-1-ene] + CCCCCCCCCCCC[N+](C)(C)CCOc1ccccc1.O=S(=O)([N-]S(=O)(=O)C(F)(F)F)C(F)(F)F ) is 3.23

# activity coefficient (compound: CCCC=O [butanal] + CCCCCCCCCCCC[N+](C)(C)CCOc1ccccc1.N#C[N-]C#N ) is 0.79

# activity coefficient (compound: CCCCCCCCC [nonane] + CCCCCCCCCCCC[N+](C)(C)CCOc1ccccc1.N#C[N-]C#N ) is 7.95

# activity coefficient (compound: CCCCCC [hexane] + CCCCCCCCCCCC[N+](C)(C)CCOc1ccccc1.O=S(=O)([N-]S(=O)(=O)C(F)(F)F)C(F)(F)F ) is 3.15

----------
# test-description: activity coefficient (dimensionless); of the first substance listed, at infinite dilution; xn = mol fraction of the nth substance listed
# experimental-parameters: 358.15 K; 101.33 kPa; Liquid; Chromatography; x1 = 0
Entries and their measured activity coefficient follow.
// no unit, no text: just the number

In [3]: df
Out[3]:
                                   molecule             parameter  value
0  CC(C)=O [acetone] + CCCCCCCCCCCC[N+](C)(C)CCOc1ccccc1.O=S(=O)([N-]S(=O)(=O)C(F)(F)F)C(F)(F)F  activity coefficient  0.421

# activity coefficient (molecule: CCCC(=O)OC [methyl butanoate] + CCCCCCCCCCCC[N+](C)(C)CCOc1ccccc1.O=S(=O)([N-]S(=O)(=O)C(F)(F)F)C(F)(F)F ) is 0.706

# activity coefficient (molecule: c1ccncc1 [pyridine] + CCCCCCCCCCCC[N+](C)(C)CCOc1ccccc1.N#C[N-]C#N ) is 0.639

# activity coefficient (molecule: CCC[N+](=O)[O-] [1-nitropropane] + CCCCCCCCCCCC[N+](C)(C)CCOc1ccccc1.O=S(=O)([N-]S(=O)(=O)C(F)(F)F)C(F)(F)F ) is 0.815

----------
# test-description: activity coefficient (dimensionless); of the first substance listed, at infinite dilution; xn = mol fraction of the nth substance listed
# experimental-parameters: 358.15 K; 101.33 kPa; Liquid; Chromatography; x1 = 0
Exam item: assign YES to entries whose activity coefficient is below 1 and NO to entries at or above 1. Note that a value of exactly 1 receives NO.

Below, 2 molecules whose answers are already recorded.
In [3]: df
Out[3]:
                                   molecule  category
0  C#CCCCCCC [1-octyne] + CCCCCCCCCCCC[N+](C)(C)CCOc1ccccc1.N#C[N-]C#N        NO
1  CCC(C)(C)OC [2-methoxy-2-methylbutane] + CCCCCCCCCCCC[N+](C)(C)CCOc1ccccc1.N#C[N-]C#N        NO

Qu. Please let me know if CC(C)CC(C)(C)C [2,2,4-trimethylpentane] + CCCCCCCCCCCC[N+](C)(C)CCOc1ccccc1.O=S(=O)([N-]S(=O)(=O)C(F)(F)F)C(F)(F)F shows activity coefficient below 1.
Ans. NO

Qu. Please let me know if CC(C)c1ccccc1 [isopropylbenzene] + CCCCCCCCCCCC[N+](C)(C)CCOc1ccccc1.N#C[N-]C#N shows activity coefficient below 1.
Ans. NO

Qu. Please let me know if CCCO [propan-1-ol] + CCCCCCCCCCCC[N+](C)(C)CCOc1ccccc1.N#C[N-]C#N shows activity coefficient below 1.
Ans. YES

Qu. Please let me know if c1ccccc1 [benzene] + CCCCCCCCCCCC[N+](C)(C)CCOc1ccccc1.N#C[N-]C#N shows activity coefficient below 1.
Ans. YES

Recorded values, source the NIST ThermoML archive (doi:10.1016/j.fluid.2018.09.024).
